# Tested on: ACHN
# Assay Overview: NCI tumour cell line growth inhibition, 48 h
Calls of active or inactive are those of the source. No stated cut-off is given here; in the data, active = GI50 up to about 1.1 µM and inactive = higher.
Quantity Name: GI50

Examples with answers:
| Compound | Test Result |
| --- | --- |
| CCOC(=O)CC(C)C(C#N)(OP1(=O)OC(c2ccccc2)C(C)N1C)c1ccccc1 (centres undefined) | 44.1 µM (inactive) |
| CC(=O)O[C@@H]1[C@H]2[C@@H](OC(=O)c3ccccc3)[C@@H](C)C[C@]2(O)[C@H](OC(C)=O)[C@@]2(C)[C@@H]3CC(C)(C)C(=O)[C@]3(OC(C)=O)C[C@@]12C | > 25 µM (inactive) |
| O=[N+]([O-])/C(C(Cl)=C(Cl)Cl)=C(/Cl)Sc1ccccc1 | 2.08 µM (inactive) |

Now look at this one.
Reported GI50 of `CC(=O)O[C@H]1CCn2c3c(c(C)c21)C(=O)C(N1CC1)=C(C)C3=O` : > 10 µM (inactive)
